Biological target: unphosphorylated T315I Abl kinase domain (Mus musculus, UniProt P00520, T315I)
Construct: purified and unphosphorylated T315I Abl kinase domain
Sequence (P00520 242-493 T315I limits assumed): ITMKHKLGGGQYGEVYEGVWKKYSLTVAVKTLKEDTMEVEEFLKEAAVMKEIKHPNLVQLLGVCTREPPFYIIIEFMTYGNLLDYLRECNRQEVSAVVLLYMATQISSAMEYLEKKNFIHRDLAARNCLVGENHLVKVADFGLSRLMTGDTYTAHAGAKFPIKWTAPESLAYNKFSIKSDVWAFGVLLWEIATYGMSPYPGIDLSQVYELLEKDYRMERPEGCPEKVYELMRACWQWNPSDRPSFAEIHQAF
Experiment: c-Abl T315I 0P bioassay (pyruvate kinase/lactate dehydrogenase coupled enzyme assay)
Conditions: zero phosphorylation state (0P), 10 μM ATP, read-out: AbI T315I 0P IC50
parameter: IC50

compound="COc1ccccc1-c1n[nH]c2ncc(-c3cccc(C(OC)C(=O)N4CC(O)C4)c3)cc12 (stereo not shown)" recorded_value="< 50 nM"
compound=COc1ccccc1-c1n[nH]c2ncc(-c3cccc(C(=O)C(=O)N(C)C)c3)cc12 recorded_value="< 50 nM"
compound="COc1ccccc1-c1c[nH]c2ncc(-c3cccc(C(C(=O)N(C)C)N4CCNCC4)c3)cc12 (stereo not shown)" recorded_value="< 50 nM"
compound="CN(C)C(=O)C(O)c1cncc(-c2cnc3[nH]cc(-c4ncco4)c3c2)c1 (stereo not shown)" recorded_value="50 to 500 nM"
compound="COc1ccccc1-c1n[nH]c2ncc(-c3cccc(C(C(=O)N(C)C(C)C)N(C)C)c3)cc12 (stereo not shown)" recorded_value="50 to 500 nM"
compound="CN(C)C(=O)C(O)c1cc(-c2cnc3[nH]cc(-c4ccccc4F)c3c2)cnc1N (stereo not shown)" recorded_value="< 50 nM"
compound=CN(C)C(=O)C(=O)c1cncc(-c2cnc3[nH]cc(-c4ccnn4C)c3c2)c1 recorded_value="> 500 nM"
compound="Cc1noc(C)c1-c1c[nH]c2ncc(-c3cncc(C(O)C(=O)N(C)C)c3)cc12 (stereo not shown)" recorded_value="50 to 500 nM"
compound="COc1ccccc1-c1n[nH]c2ncc(-c3cccc(C(O)C(=O)NC4CCN(C)CC4)c3)cc12 (stereo not shown)" recorded_value="< 50 nM"
compound="COc1ccccc1-c1c[nH]c2ncc(-c3cccc(C(C(=O)N(C)CCN(C)C)N4CCNCC4)c3)cc12 (stereo not shown)" recorded_value="< 50 nM"
compound="CN(C)C(=O)C(O)c1cncc(-c2cnc3[nH]cc(-c4ccn[nH]4)c3c2)c1 (stereo not shown)" recorded_value="< 50 nM"
compound="CNCCN(C)C(=O)C(N)c1cccc(-c2cnc3[nH]cc(-c4ccccc4OC)c3c2)c1 (stereo not shown)" recorded_value="< 50 nM"
compound="COc1ccccc1-c1c[nH]c2ncc(-c3cccc(C(O)c4ncccc4C(F)(F)F)c3)cc12 (stereo not shown)" recorded_value="< 50 nM"
compound="COc1ccccc1-c1n[nH]c2ncc(-c3cccc(C(OC)C(=O)N(C)C)c3)cc12 (stereo not shown)" recorded_value="< 50 nM"
compound="COc1ccccc1-c1c[nH]c2ncc(-c3cc(C(O)C(=O)N(C)C)ccn3)cc12 (stereo not shown)" recorded_value="< 50 nM"
compound=COc1ccccc1-c1n[nH]c2ncc(-c3cccc([C@H](O)[C@H](O)C(C)C)c3)cc12 recorded_value="< 50 nM"
compound="CN(C)C(=O)C(O)c1cncc(-c2cnc3[nH]cc(-c4ccccc4OC4CC4)c3c2)c1 (stereo not shown)" recorded_value="< 50 nM"
compound="COc1ccccc1-c1n[nH]c2ncc(-c3cccc(C(C)C(=O)N4CC(O)C4)c3)cc12 (stereo not shown)" recorded_value="< 50 nM"
compound="COc1ccc(F)cc1-c1c[nH]c2ncc(-c3cncc(C(O)C(=O)N(C)C)c3)cc12 (stereo not shown)" recorded_value="< 50 nM"
